The molecules listed here are annotated with their growth.
System: UACC-62 melanoma
Test: NCI-60 one-dose screen, 48 h (100 = growth as untreated, 0 = no growth, -100 = all killed)
Conditions: 10 µM unless noted
About 83,000 compounds went through this panel and 20% of them were active in at least one assay; those are over-represented in the sample as a whole.
VALUE_TYPE: growth (%)

CC(=O)OC[C@H]1OC(Sc2sc(C(=O)c3ccc(C)cc3)c(N)c2-c2nc3ccccc3s2)[C@H](OC(C)=O)[C@@H](OC(C)=O)[C@@H]1OC(C)=O (some centres undefined) = 55.8
COc1ccccc1/C=C1\Oc2cc(OCCN3CCC(Cc4ccccc4)CC3)ccc2C1=O = 92.1
Cc1cc(Cl)ccc1NS(=O)(=O)c1ccc(-c2cnc(C3CC3)o2)cc1 = 26.7
O=C(N/N=C/[C@H](O)[C@@H](O)[C@@H](O)[C@H](O)CO)c1ccc(NC(=O)c2cccnc2)cc1 = 95.5
C/C(=N/NC(N)=S)c1sc(Nc2cccc(Cl)c2)nc1C = 92.9
Cc1oc2nc[nH]c(=O)c2c1C(=O)/C=C/c1ccc(Br)cc1 = 13.2
COc1ccc(OC)c(/C=C2\Oc3cc(OCCN4CCC(Cc5ccccc5)CC4)ccc3C2=O)c1 = 92.8
O=c1[nH][n+](-c2ccc(Br)cc2)no1 = 9.27
COc1nc2ccccc2cc1-c1nc2c(cnn2-c2ccc(Br)cc2)c(=O)[nH]1 = 24.9

###

Tested on: A549/ATCC NSCLC
Experiment: NCI-60 one-dose screen, 48 h
Conditions: 10 µM unless noted
This is part of a sample that, as a whole, favours compounds with a hit. Of some 83,000 tested, about 20% had one in any assay. The source made the active and inactive calls. How the source made its calls: active means growth percent below 10; inactive means the rest.
Outcomes: active, inactive

COc1cc(C2CC(c3ccc(N(C)C)cc3)=NN2C(C)=O)cc(OC)c1OC (centres undefined) = inactive
COc1cc(C(=O)N2N=C(c3ccc(S(C)(=O)=O)cc3)CC2c2ccco2)cc(OC)c1OC (centres undefined) = inactive
COc1ccc(C(=O)C[C@]2(O)C(=O)Nc3c(Cl)ccc(Cl)c32)cc1 = inactive
O=C(Cc1ccc(F)c(Cl)c1)Nc1cc(C2(C(F)(F)F)CC2)nn1CC1CCCCC1 = active
COc1nc2ccc(C)cc2cc1-c1nc2c(cnn2-c2ccc(Br)cc2)c(=O)[nH]1 = inactive
CCCCn1c(-c2ccc(C(=O)O/N=C(\N)c3ccc(OC)cc3)cc2)nc(-c2ccccc2)c1-c1ccccc1 = active
NCCCNc1nc2ccccc2c2c(=O)c3cc(F)cc(Cl)c3sc12 = inactive
O=C(/C=C/c1sc(Cl)nc1Cl)c1ccccc1 = inactive
CCN1C(=O)N(CC)C2Nn3c(s/c(=C4\C(=O)N(CCC(C)C)c5ccccc54)c3=O)=NC21 (centres undefined) = inactive

###

Test system: A498 renal
Test: NCI-60 one-dose screen, 48 h (100 = growth as untreated, 0 = no growth, -100 = all killed)
Conditions: 10 µM unless noted
The panel holds about 83,000 compounds, 20% with a hit somewhere; the sample as a whole holds those more often.
Returns: string. Value is Condition met if measured growth is below 50%, and Condition not met if it is greater than or equal to it.

CC(C)C(=O)Nc1ccc(-c2nc(-c3cccc(OCCN4CCOCC4)c3)c(-c3ccnc(Br)c3)[nH]2)cc1 = Condition not met
COc1ccc(/C=C/c2c(C(=O)/C=C/c3ccc(Cl)cc3)c(C)nc3ccccc23)cc1 = Condition met
Cc1nc2ccccc2n1CC1C(=O)NC(=O)NC1=O = Condition met
Cc1onc2c(-c3ccccc3)n[nH]c(=O)c12 = Condition not met
CCOC(=O)c1c2c(n(-c3ccc(C#N)cc3)c1-c1ccccc1)C=CCC2 = Condition not met

Where do the numbers come from? From PubChem BioAssay (NCI).
